# Tested on: K. pneumoniae isolate 850707
# test_summary: Minimum inhibitory concentration (MIC) results, isolate 850707
# Type: cell-based
# experimental_conditions: Klebsiella pneumoniae; Isolate No. 850707, K. pneumoniae, IMP-26, CTX-M-15, SHV-28(u); read-out: MIC Value
observable: MIC (µg/mL)

>  <compound>
CC1(C)S[C@@H]2[C@H](NC(=O)[C@H](N)c3ccccc3)C(=O)N2[C@H]1C(=O)O [Ampicillin]

>  <result_units>
µg/mL

>  <MIC>
32

$$$$
>  <compound>
CO/N=C(\C(=O)N[C@@H]1C(=O)N2C(C(=O)[O-])=C(C[N+]3(C)CCCC3)CS[C@H]12)c1csc(N)n1 [Cefepime]

>  <result_units>
µg/mL

>  <MIC>
16

$$$$

A. C[C@@H](O)[C@H]1C(=O)N2C(C(=O)O)=C(S[C@@H]3CN[C@H](C(=O)N(C)C)C3)[C@H](C)[C@H]12 [Meropenem]
B. C[C@@H](O)[C@H]1C(=O)N2C(C(=O)O)=C(SCCN=CN)C[C@H]12 [Imipenem]
Between the two listed entries A and B , which has its MIC at the higher number? API: response body contains the label of the selected item.
A

1. C[C@@H](O)[C@H]1C(=O)N2C(C(=O)O)=C(S[C@@H]3CN[C@H](CNS(N)(=O)=O)C3)[C@H](C)[C@H]12 [Doripenem]
2. C[C@@H](O)[C@H]1C(=O)N2C(C(=O)O)=C(S[C@@H]3CN[C@H](C(=O)Nc4cccc(C(=O)O)c4)C3)[C@H](C)[C@H]12 [Ertapenem]
Between the two listed entries 1 and 2 , which has its MIC at the higher number? API: response body contains the label of the selected item.
1

I. NCC[C@H](O)C(=O)N[C@@H]1C[C@H](N)[C@@H](O[C@H]2O[C@H](CN)[C@@H](O)[C@H](O)[C@H]2O)[C@H](O)[C@H]1O[C@H]1O[C@H](CO)[C@@H](O)[C@H](N)[C@H]1O [Amikacin]
II. C[C@H]1COc2c(N3CCN(C)CC3)c(F)cc3c(=O)c(C(=O)O)cn1c23 [Levofloxacin]
Between the two listed entries I and II , which has its MIC at the higher number? API: response body contains the label of the selected item.
I
(I: 32 µg/mL, II: 1 µg/mL)
